# TGT: Endonuclease 8-like 1 (Homo sapiens) (UniProt Q96FI4)
# Sequence (Q96FI4 whole entry): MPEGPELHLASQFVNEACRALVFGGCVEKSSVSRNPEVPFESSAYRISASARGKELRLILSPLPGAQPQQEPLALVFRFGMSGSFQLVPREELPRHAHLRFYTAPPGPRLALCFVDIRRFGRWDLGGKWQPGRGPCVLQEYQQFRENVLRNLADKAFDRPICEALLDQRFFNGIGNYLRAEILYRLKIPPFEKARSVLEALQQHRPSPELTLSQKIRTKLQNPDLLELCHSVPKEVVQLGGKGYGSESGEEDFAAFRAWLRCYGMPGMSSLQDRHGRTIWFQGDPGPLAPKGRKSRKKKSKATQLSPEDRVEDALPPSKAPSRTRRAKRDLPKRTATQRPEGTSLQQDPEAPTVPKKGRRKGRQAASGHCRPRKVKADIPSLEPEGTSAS
# MEASUREMENT_CONDITIONS: Compound Concentration 10.0 uM, Hit No;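 note: fluorescence at 594 nm from quenched duplex DNA oligonucleotides released by NEIL1 cleavage and strand separation, reported as reduction of this enzyme activity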
# Description: Inhibition of NEIL1 by quantifying inhibition of NEIL1-mediated cleavage and dissociation of quenched duplex DNA oligonucleotides, measured as fluorescence at 594 nm.
Here, each record is paired with measured inhibition data.
// units = %; emit number, no label

Before answering, review these 5 worked examples.
MOLECULE: O=c1ccc2c(OCCCCc3ccccc3)c3ccoc3cc2o1
inhibition / %: 4.31
--
MOLECULE: O=C(NCc1ccccc1)c1ccc(S(=O)(=O)NCc2ccccc2)cc1
inhibition / %: -2.64
--
MOLECULE: N=C(N)NC(=O)Cc1c(Cl)cccc1Cl
inhibition / %: 10.8
--
MOLECULE: CC(C)c1c(NC(=O)Nc2ccc(Cl)cc2)c(=O)n(-c2ccccc2)n1C
inhibition / %: 4.99
--
MOLECULE: C[C@@H](c1cccc(CN)c1)n1cc(Cl)cc(C(N)=O)c1=N
inhibition / %: -9.23

Q: Give the value of inhibition reported for the following: Cn1cc(Nc2nccc(N3CC4CCC(C3)N4C(=O)[C@@H]3CC3(F)F)n2)cn1
Result: 0.138

Q: Give the value of inhibition reported for the following: CC(C)(C)NC[C@H](O)COc1nsnc1N1CCOCC1
Result: -6.13

Q: Give the value of inhibition reported for the following: CN(C)CCOc1ccc(-c2nc(-c3ccncc3)c(-c3ccc4c(c3)CC/C4=N\O)[nH]2)cc1
Result: 1.19

Q: Give the value of inhibition reported for the following: CC[C@H](NC(=O)c1c(C)c(-c2ccccc2)nc2ccccc12)c1ccccc1
Result: -0.204

Q: Give the value of inhibition reported for the following: O=C(O)C[C@H]1CCc2c1[nH]c1ccc(OCc3ccc(C4CCCC4)c(C(F)(F)F)c3)cc21
Result: -9.84

These data points were gathered from ChEMBL document CHEMBL5665443.
